biological target: hSCN9A (Homo sapiens); construct: expressed in transfected cells; assay: Whole-cell patch-clamp electrophysiology (conventional or PatchXpress), HEK cells expressing hSCN9A, estimated IC-50; assay type: cell-based; conditions: Table V; estimated IC-50 from single point electrophysiology, cells clamped at V1/2; read-out: SCN9A EIC-50
Sequence (Q15858 whole entry): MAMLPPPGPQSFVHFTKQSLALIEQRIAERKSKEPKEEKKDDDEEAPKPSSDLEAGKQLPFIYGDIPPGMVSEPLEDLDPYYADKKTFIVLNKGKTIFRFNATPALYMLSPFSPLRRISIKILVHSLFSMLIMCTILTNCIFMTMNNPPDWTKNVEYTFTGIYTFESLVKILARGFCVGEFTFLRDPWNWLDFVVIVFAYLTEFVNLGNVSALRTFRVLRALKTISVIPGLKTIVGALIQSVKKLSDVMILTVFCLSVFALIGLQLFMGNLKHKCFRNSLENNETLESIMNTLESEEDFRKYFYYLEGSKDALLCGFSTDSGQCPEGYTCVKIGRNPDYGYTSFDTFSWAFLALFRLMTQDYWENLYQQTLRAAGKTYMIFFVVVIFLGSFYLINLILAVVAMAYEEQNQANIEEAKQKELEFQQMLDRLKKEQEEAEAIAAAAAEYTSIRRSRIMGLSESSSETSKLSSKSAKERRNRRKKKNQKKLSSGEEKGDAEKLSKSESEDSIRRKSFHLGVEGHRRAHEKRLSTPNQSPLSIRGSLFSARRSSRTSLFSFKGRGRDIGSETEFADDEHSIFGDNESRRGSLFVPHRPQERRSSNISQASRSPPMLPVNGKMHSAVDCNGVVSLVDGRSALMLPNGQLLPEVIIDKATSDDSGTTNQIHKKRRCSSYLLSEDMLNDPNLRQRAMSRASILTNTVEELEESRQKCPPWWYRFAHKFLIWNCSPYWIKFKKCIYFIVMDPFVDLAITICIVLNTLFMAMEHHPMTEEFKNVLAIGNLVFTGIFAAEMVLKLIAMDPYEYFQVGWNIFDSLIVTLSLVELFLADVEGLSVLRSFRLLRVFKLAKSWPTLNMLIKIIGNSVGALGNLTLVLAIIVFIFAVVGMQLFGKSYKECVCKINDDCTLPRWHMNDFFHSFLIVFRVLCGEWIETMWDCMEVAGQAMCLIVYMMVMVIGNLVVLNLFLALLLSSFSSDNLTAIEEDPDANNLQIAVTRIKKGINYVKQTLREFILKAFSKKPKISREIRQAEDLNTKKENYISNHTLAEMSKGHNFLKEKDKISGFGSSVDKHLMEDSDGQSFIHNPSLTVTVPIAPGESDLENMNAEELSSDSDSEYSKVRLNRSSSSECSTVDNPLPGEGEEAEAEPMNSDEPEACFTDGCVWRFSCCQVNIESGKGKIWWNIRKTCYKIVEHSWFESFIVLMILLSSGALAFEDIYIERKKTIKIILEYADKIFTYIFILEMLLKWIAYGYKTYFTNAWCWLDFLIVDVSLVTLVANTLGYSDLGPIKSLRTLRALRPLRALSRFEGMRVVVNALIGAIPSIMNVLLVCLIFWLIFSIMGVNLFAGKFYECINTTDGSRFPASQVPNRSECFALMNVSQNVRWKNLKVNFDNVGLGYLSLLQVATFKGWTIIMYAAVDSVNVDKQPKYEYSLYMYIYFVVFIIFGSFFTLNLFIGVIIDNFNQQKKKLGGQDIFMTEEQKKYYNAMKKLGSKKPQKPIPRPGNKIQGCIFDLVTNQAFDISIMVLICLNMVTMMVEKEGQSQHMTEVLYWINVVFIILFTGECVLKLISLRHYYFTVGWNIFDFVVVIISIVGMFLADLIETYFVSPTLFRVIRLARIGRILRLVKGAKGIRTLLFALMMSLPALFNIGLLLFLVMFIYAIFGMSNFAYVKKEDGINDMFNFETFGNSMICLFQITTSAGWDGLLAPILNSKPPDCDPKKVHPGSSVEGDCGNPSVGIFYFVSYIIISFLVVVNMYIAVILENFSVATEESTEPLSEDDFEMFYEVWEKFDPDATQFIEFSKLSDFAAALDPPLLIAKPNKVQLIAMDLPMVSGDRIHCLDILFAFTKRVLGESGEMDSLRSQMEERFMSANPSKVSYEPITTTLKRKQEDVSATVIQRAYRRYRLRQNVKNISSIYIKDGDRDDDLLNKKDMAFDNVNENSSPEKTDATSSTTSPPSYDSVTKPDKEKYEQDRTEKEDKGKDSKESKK
Parameter: IC50. Scope: all listed entries.

[
  {
    "molecule": "Cc1cc(Nc2ccc(S(=O)(=O)Nc3nccs3)cc2F)n(-c2ccccc2)n1 [Compound 35]",
    "IC50": "< 2000 nM"
  },
  {
    "molecule": "O=S(=O)(Nc1nccs1)c1ccc(Nc2cc(Cc3ccc(Cl)cc3)n[nH]2)cc1 [Compound 16]",
    "IC50": "< 2000 nM"
  },
  {
    "molecule": "Cc1cc(Nc2ccc(S(=O)(=O)Nc3nccs3)cc2)n(-c2ccccc2)n1 [Compound 20]",
    "IC50": "2000 to 10000 nM"
  },
  {
    "molecule": "Cn1nc(Cc2ccc(Cl)cc2)cc1Nc1ccc(S(=O)(=O)Nc2nccs2)cc1 [Compound 21]",
    "IC50": "< 2000 nM"
  },
  {
    "molecule": "O=S(=O)(Nc1nccs1)c1ccc(Nc2nc(Cc3ccc(Cl)cc3)cs2)cc1F [Compound 1]",
    "IC50": "< 2000 nM"
  },
  {
    "molecule": "O=S(=O)(Nc1nccs1)c1ccc(Nc2cc(C3CC3)nn2-c2ccccc2)cc1F [Compound 32]",
    "IC50": "< 2000 nM"
  },
  {
    "molecule": "N#Cc1ccc(Cc2csc(Nc3ccc(S(=O)(=O)Nc4nccs4)c(F)c3)n2)cc1 [Compound 5]",
    "IC50": "2000 to 10000 nM"
  },
  {
    "molecule": "CC(C)(C)c1cc(Nc2ccc(S(=O)(=O)Nc3nccs3)cc2)[nH]n1 [Compound 23]",
    "IC50": "2000 to 10000 nM"
  },
  {
    "molecule": "Cc1nc(Nc2ccc(S(=O)(=O)Nc3nccs3)c(F)c2)sc1C(C)(C)C [Compound 13]",
    "IC50": "< 2000 nM"
  },
  {
    "molecule": "CS(=O)(=O)c1ccc(Cc2csc(Nc3ccc(S(=O)(=O)Nc4nccs4)c(F)c3)n2)cc1 [Compound 4]",
    "IC50": "2000 to 10000 nM"
  },
  {
    "molecule": "O=S(=O)(Nc1nccs1)c1ccc(Nc2nnc(Cc3ccc(C(F)(F)F)cc3)s2)cc1 [Compound 27]",
    "IC50": "> 10000 nM"
  },
  {
    "molecule": "Cn1nc(CC(C)(C)C)cc1Nc1ccc(S(=O)(=O)Nc2nccs2)c(F)c1 [Compound 34]",
    "IC50": "< 2000 nM"
  },
  {
    "molecule": "CC(C)(C)c1csc(Nc2ccc(S(=O)(=O)Nc3nccs3)c3ccccc23)n1 [Compound 12]",
    "IC50": "2000 to 10000 nM"
  },
  {
    "molecule": "Cc1nc(Nc2ccc(S(=O)(=O)Nc3nccs3)cc2)sc1C(C)(C)C [Compound 8]",
    "IC50": "< 2000 nM"
  },
  {
    "molecule": "CC(C)(C)c1csc(Nc2ccc(S(=O)(=O)Nc3nccs3)c(Cl)c2)n1 [Compound 10]",
    "IC50": "2000 to 10000 nM"
  },
  {
    "molecule": "Nc1nc(Nc2ccc(S(=O)(=O)Nc3nccs3)cc2)nn1Cc1ccc(Cl)cc1 [Compound 24]",
    "IC50": "> 10000 nM"
  },
  {
    "molecule": "CC(=O)c1sc(Nc2ccc(S(=O)(=O)Nc3nccs3)c(F)c2)nc1C [Compound 9]",
    "IC50": "2000 to 10000 nM"
  },
  {
    "molecule": "CN(c1ccc(S(=O)(=O)Nc2nccs2)c(F)c1)c1nc(Cc2ccc(Cl)cc2)cs1 [Compound 6]",
    "IC50": "2000 to 10000 nM"
  },
  {
    "molecule": "O=S(=O)(Nc1nccs1)c1ccc(Nc2nc(C(c3ccccc3)c3ccccc3)cs2)cc1 [Compound 2]",
    "IC50": "2000 to 10000 nM"
  },
  {
    "molecule": "CC(C)(C)n1nc(Cc2ccc(Cl)cc2)cc1Nc1ccc(S(=O)(=O)Nc2nccs2)cc1 [Compound 15]",
    "IC50": "< 2000 nM"
  },
  {
    "molecule": "COc1ccc(Cc2csc(Nc3ccc(S(=O)(=O)Nc4nccs4)c(F)c3)n2)cc1 [Compound 3]",
    "IC50": "> 10000 nM"
  },
  {
    "molecule": "CC(C)(C)n1nc(Cc2ccc(Cl)cc2)cc1Nc1ccc(S(=O)(=O)Nc2nccs2)c(F)c1 [Compound 26]",
    "IC50": "< 2000 nM"
  },
  {
    "molecule": "O=S(=O)(Nc1nccs1)c1ccc(Nc2cc(C3CC3)nn2-c2ccccc2)c(F)c1 [Compound 36]",
    "IC50": "< 2000 nM"
  },
  {
    "molecule": "N#Cc1cnn(-c2ccc(F)c(Cl)c2)c1Nc1ccc(S(=O)(=O)Nc2nccs2)cc1 [Compound 25]",
    "IC50": "> 10000 nM"
  },
  {
    "molecule": "CC(C)(C)c1csc(Nc2ccc(S(=O)(=O)Nc3nccs3)c(OC(F)(F)F)c2)n1 [Compound 11]",
    "IC50": "2000 to 10000 nM"
  },
  {
    "molecule": "CC(C)(C)c1cc(Nc2ccc(S(=O)(=O)Nc3nccs3)cc2)no1 [Compound 18]",
    "IC50": "> 10000 nM"
  },
  {
    "molecule": "O=S(=O)(Nc1nccs1)c1ccc(Nc2ccn(Cc3ccc(Cl)cc3)n2)cc1F [Compound 31]",
    "IC50": "< 2000 nM"
  },
  {
    "molecule": "Cn1nc(C(C)(C)C)cc1Nc1ccc(S(=O)(=O)Nc2nccs2)cc1 [Compound 17]",
    "IC50": "2000 to 10000 nM"
  },
  {
    "molecule": "CC(C)(C)c1csc(Nc2ccc(S(=O)(=O)Nc3nccs3)cc2)n1 [Compound 14]",
    "IC50": "2000 to 10000 nM"
  }
]
